- System: AGS cells
- ASSAY PROCEDURE: Inhibition of 3D proliferation of AGS cells (CellTiter-Glo 3D)
- Type: cell-based
- STUDY CONDITIONS: Homo sapiens, 120 h incubation
- Protocol: AGS cells (Nanjing Cobioer, CBP60476) were cultured in a complete medium, namely RPMI1640 medium (Hyclone, SH30809.01) containing 10% fetal bovine serum (Corning, 35-076-CV). On the first day of the experiment, the AGS cells were seeded into a 96-well low adsorption plate (Corning, CLS7007-24EA) at a density of 1,000 cells/well using complete medium to form 90 µL of cell suspension per well. […]
OBSERVABLE: pIC50
pIC50 (log units): -log10 of the concentration in mol/L.

**Q:** Would you mind telling me what pIC50 value was observed for Oc1cc(-c2nc3c4c(nc(OC[C@@]56CCCN5C[C@H](F)C6)nc4c2F)N2C[C@H]4CC[C@H](N4)[C@H]2CO3)c2c(F)c(F)ccc2c1 [Example 8-p1] ?
**A:** 7.30

**Q:** Consider next the compound CCc1cccc2cc(O)cc(-c3nc4c5c(nc(OC[C@@]67CCCN6C[C@H](F)C7)nc5c3F)N3C[C@H]5CC[C@H](N5)[C@H]3CO4)c12 [Example 4-p1] in the same way.
**A:** 7.84

**Q:** What about this compound? Oc1cc(-c2nc3c4c(nc(OC[C@@]56CCCN5C[C@H](F)C6)nc4c2F)N2C[C@H]4CC[C@H](N4)[C@H]2CO3)c2c(F)cccc2c1 [Example 3-p1]
**A:** 7.02

**Q:** Query CCc1c(F)ccc2cc(O)cc(-c3nc4c5c(nc(OCC6(CN7CCC[C@H]7CO)CC6)nc5c3F)N3C[C@H]5CC[C@H](N5)[C@H]3CO4)c12 next
**A:** 7.28

**Q:** Param item: Oc1cc(Cl)c(C2CC2)c(-c2nc3c4c(nc(OC[C@@]56CCCN5C[C@H](F)C6)nc4c2F)N2C[C@H]4CC[C@H](N4)[C@H]2CO3)c1 [Example 6-p1]
**A:** 7.48

**Q:** Let us now turn to CCc1c(F)ccc2cc(O)cc(-c3nc4c5c(nc(OC[C@@]67CCCN6C[C@H](F)C7)nc5c3F)N3C[C@H]5CC[C@H](N5)[C@H]3CO4)c12 [Example 9-p1]
**A:** 8.24
